# Assay System: full-length beta-Catenin (Uniprot ID P35222) (Homo sapiens, UniProt P35222)
# Construct: 10 nM full-length beta-Catenin (Uniprot ID P35222)
# Sequence (P35222 1-781): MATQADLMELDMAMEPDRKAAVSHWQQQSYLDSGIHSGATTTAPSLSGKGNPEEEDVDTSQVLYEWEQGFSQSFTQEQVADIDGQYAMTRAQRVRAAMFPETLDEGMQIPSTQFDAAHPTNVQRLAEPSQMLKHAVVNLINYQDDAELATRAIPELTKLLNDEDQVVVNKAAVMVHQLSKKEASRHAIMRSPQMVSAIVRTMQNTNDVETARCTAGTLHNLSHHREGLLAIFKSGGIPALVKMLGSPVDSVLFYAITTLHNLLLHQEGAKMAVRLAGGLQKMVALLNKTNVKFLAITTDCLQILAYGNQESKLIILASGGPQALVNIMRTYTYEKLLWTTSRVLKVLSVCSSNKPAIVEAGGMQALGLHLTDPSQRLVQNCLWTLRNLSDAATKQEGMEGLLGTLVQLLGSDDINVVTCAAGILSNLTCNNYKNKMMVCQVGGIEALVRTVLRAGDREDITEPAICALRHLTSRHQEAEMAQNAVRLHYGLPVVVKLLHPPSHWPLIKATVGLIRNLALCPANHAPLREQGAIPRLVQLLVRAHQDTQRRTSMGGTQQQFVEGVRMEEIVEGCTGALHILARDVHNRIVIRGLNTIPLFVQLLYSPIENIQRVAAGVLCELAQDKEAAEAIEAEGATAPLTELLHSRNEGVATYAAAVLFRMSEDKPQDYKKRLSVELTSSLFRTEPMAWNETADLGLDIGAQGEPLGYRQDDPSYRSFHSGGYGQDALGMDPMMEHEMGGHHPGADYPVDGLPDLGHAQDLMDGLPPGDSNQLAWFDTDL
# Test Description: Fluorescence polarization IC50 (beta-catenin / 5FAM-TCF4 10-53 competition)
# Format: binding
# Condition Set: fluorescence polarization; read-out: beta-Catenin FP IC50
Measurement Kind: pIC50
// scale note: pIC50 = -log10(conc_M); give the bare number

Inquiry: May I ask what pIC50 has been recorded for CC(=O)N1CCC[C@]12CC=CCCCC1(CCCC=CCCCOC(=O)N3CC[C@@](C(=O)N[C@@H](Cc4ccccc4C(F)(F)F)C(=O)N[C@@H](Cc4csc5ccccc45)C(=O)N[C@@H](CCC(=O)N(C)C)C(N)=O)(C3)NC(=O)[C@H](CCC(=O)N3CCOCC3)NC(=O)[C@H](Cc3ccccc3)NC(=O)[C@H](C)NC(=O)[C@H](C)NC(=O)[C@H](Cc3cccc(C(=O)O)c3)NC(=O)[C@H](CC(=O)O)NC1=O)NC(=O)[C@H](CC(C)(C)C)NC(=O)[C@H](CC(=O)O)NC2=O (stereo partly shown) [I-2537] ?
Reply text: 7.96

* * *

# Assay System: full-length beta-Catenin (Uniprot ID P35222) (Homo sapiens)
# Construct: 10 nM full-length beta-Catenin (Uniprot ID P35222)
# Test Description: Fluorescence polarization IC50 (beta-catenin / 5FAM-TCF4 10-53 competition)
# Format: binding
# Condition Set: fluorescence polarization; read-out: beta-Catenin FP IC50
Measurement Kind: IC50 (nM)
# number only, unit nM dropped from output

Inquiry: May I ask what IC50 has been recorded for CC(=O)N1CCC[C@]12CC=CCCCC1(CCCC=CCCCOC(=O)N3CC[C@@](C(=O)N[C@@H](Cc4ccccc4C(F)(F)F)C(=O)N[C@@H](Cc4csc5ccccc45)C(=O)N[C@@H](CCC(=O)N(C)C)C(=O)N[C@@H](C)C(N)=O)(C3)NC(=O)[C@H](CC(C)C)NC(=O)[C@H](Cc3ccccc3)NC(=O)[C@H](C)NC(=O)[C@H](C)NC(=O)[C@H](Cc3cccc(C(=O)O)c3)NC(=O)[C@H](CC(=O)O)NC1=O)NC(=O)[C@H](CC(C)(C)C)NC(=O)[C@H](CC(=O)O)NC2=O (some centres unmarked) [I-2466] ?
Reply text: 15

Inquiry: May I ask what IC50 has been recorded for CC(=O)N1CCC[C@]12CC=CCCCC1(CCCC=CCCCOC(=O)N3CC[C@@](C(=O)N[C@@H](Cc4ccsc4)C(=O)N[C@@H](Cc4csc5ccccc45)C(=O)N[C@@H](CCC(N)=O)C(N)=O)(C3)NC(=O)[C@H](CC(C)C)NC(=O)[C@H](Cc3ccccc3)NC(=O)[C@H](C)NC(=O)[C@H](C)NC(=O)[C@H](CCN(CC(=O)O)CC(=O)O)NC(=O)[C@H](CC(=O)O)NC1=O)NC(=O)[C@H](CC(C)(C)C)NC(=O)[C@H](CC(=O)O)NC2=O (some centres unmarked) [I-1836] ?
Reply text: 24

* * *

# Assay System: full-length beta-Catenin (Uniprot ID P35222) (Homo sapiens)
# Construct: 10 nM full-length beta-Catenin (Uniprot ID P35222)
# Test Description: Fluorescence polarization IC50 (beta-catenin / 5FAM-TCF4 10-53 competition)
# Format: binding
# Condition Set: fluorescence polarization; read-out: beta-Catenin FP IC50
Measurement Kind: pIC50
// scale note: pIC50 = -log10(conc_M); give the bare number

Inquiry: Value wanted: pIC50 (full-length beta-Catenin (Uniprot ID P35222) (Homo sapiens)) of entry CC(=O)N1CCC[C@]12CCCCCCC1(CCCCCCOC(=O)N3CC[C@@](C(=O)N[C@@H](Cc4ccsc4)C(=O)N[C@@H](Cc4csc5ccccc45)C(=O)N[C@@H](CCC(N)=O)C(N)=O)(C3)NC(=O)[C@H](CC(C)C)NC(=O)[C@H](Cc3ccccc3)NC(=O)[C@H](C)NC(=O)[C@H](C)NC(=O)[C@H](CC(=O)O)NC(=O)[C@H](CC(=O)O)NC1=O)NC(=O)[C@H](CC(C)(C)C)NC(=O)[C@H](CC(=O)O)NC2=O (stereo partly drawn)
Reply text: 7.00

Inquiry: Value wanted: pIC50 (full-length beta-Catenin (Uniprot ID P35222) (Homo sapiens)) of entry CC[C@H](C)[C@@H]1NC(=O)[C@H](CC(=O)O)NC(=O)[C@]2(CC=CCCCC3(CCCC=CCCCCCC[C@@](C)(C(=O)N[C@@H](Cc4ccccc4)C(=O)N[C@@H](Cc4csc5ccccc45)C(=O)N[C@@H](CCC(N)=O)C(N)=O)NC(=O)[C@H](CCC(N)=O)NC(=O)[C@H](Cc4ccccc4)NC(=O)[C@H](CO)NC(=O)[C@H](C)NC(=O)[C@H](CCC(=O)O)NC(=O)[C@H](CC(=O)O)NC3=O)NC1=O)CCCN2C(C)=O (stereo partly drawn) [I-662]
Reply text: 7.59

Inquiry: Value wanted: pIC50 (full-length beta-Catenin (Uniprot ID P35222) (Homo sapiens)) of entry CC[C@H](C)[C@@H]1NC(=O)[C@H](CC(=O)O)NC(=O)[C@]2(CC=CCCCC3(CCCC=CCCCCCC[C@@](C)(C(=O)N[C@@H](Cc4ccsc4)C(=O)N[C@@H](Cc4csc5ccccc45)C(=O)N[C@@H](Cc4c[nH]cn4)C(N)=O)NC(=O)[C@H](CC(N)=O)NC(=O)[C@H](Cc4ccccc4)NC(=O)[C@H](C)NC(=O)[C@H](C)NC(=O)[C@H](CC(=O)O)NC(=O)[C@H](CC(=O)O)NC3=O)NC1=O)CCCN2C(C)=O (stereo partly drawn) [I-555]
Reply text: 7.39

* * *

# Assay System: beta-catenin/TCF4 engagement (Homo sapiens)
# Construct: expressed in transfected cells; host or cells: HEK293
# Test Description: Nano-BRET target engagement assay (B-cat-Halo & TCF4-Luc in HEK293 cells)
# Type: cell-based
# Condition Set: absolute IC50; read-out: NanoBRET Abs IC50
Measurement Kind: IC50 (µM)
# number only, unit µM dropped from output

Inquiry: Value wanted: IC50 (beta-catenin/TCF4 engagement (Homo sapiens)) of entry CC(=O)N1CCC[C@]12CC=CCCCC1(CCCC=CCCCCCC[C@@](C)(C(=O)N[C@@H](Cc3ccccc3)C(=O)N[C@@H](Cc3csc4ccccc34)C(=O)N[C@@H](CCC(N)=O)C(N)=O)NC(=O)[C@H](CC(N)=O)NC(=O)[C@H](Cc3ccccc3)NC(=O)[C@H](C)NC(=O)[C@H](C)NC(=O)[C@H](CC(=O)O)NC(=O)[C@H](CC(=O)O)NC1=O)NC(=O)[C@H](CC(C)C)NC(=O)[C@H](CC(=O)O)NC2=O (stereo partly drawn) [I-563]
Reply text: 15.7

Inquiry: Value wanted: IC50 (beta-catenin/TCF4 engagement (Homo sapiens)) of entry CC[C@H](C)[C@@H]1NC(=O)[C@H](CC(=O)O)NC(=O)[C@]2(CC=CCCCC3(CCCC=CCCCCCC[C@@](C)(C(=O)N[C@@H](Cc4ccccc4OC)C(=O)N[C@@H](Cc4csc5ccccc45)C(=O)N[C@@H](CCC(N)=O)C(N)=O)NC(=O)[C@H](CC(N)=O)NC(=O)[C@H](Cc4ccccc4)NC(=O)[C@H](C)NC(=O)[C@H](C)NC(=O)[C@H](CC(=O)O)NC(=O)[C@H](CC(=O)O)NC3=O)NC1=O)CCCN2C(C)=O (stereo partly drawn) [I-550]
Reply text: 21.4

Inquiry: Value wanted: IC50 (beta-catenin/TCF4 engagement (Homo sapiens)) of entry CCCC[C@@H]1NC(=O)[C@H](Cc2ccccc2)NC(=O)[C@H](C)NC(=O)C(C)(C)NC(=O)[C@H](Cc2cccc(C(=O)O)c2)NC(=O)[C@H](CC(=O)O)NC(=O)C2(CCCC=CCCCOC(=O)N3CC[C@@](C(=O)N[C@@H](Cc4ccsc4)C(=O)N[C@@H](Cc4csc5ccccc45)C(=O)N[C@@H](CCC(=O)N(CCOC)CCOC)C(N)=O)(C3)NC1=O)CCCC=CC[C@]1(CCCN1C(C)=O)C(=O)N[C@@H](CC(=O)O)C(=O)N[C@@H](CC(C)(C)C)C(=O)N2 (stereo partly drawn) [I-2554]
Reply text: 3.3
